# maps each entry to its melting point

Recorded melting point, per entry:
Smiles notation	Readout label	Reported result
OCc1ccc(C=Cc2csc3ccccc23)s1	melting point	68 to 70 °C
COc1ccc(CCn2cc(C(=O)NCCN(C)C)c3nc4c(C)cccc4cc3c2=O)cc1OC	melting point	113 to 114 °C

In the following, a different compound is considered.
Lab book: melting point of `O=C(O)CCCN(C(=O)c1ccc(Cl)cc1Cl)c1cccc2ccccc12` noted as 134 to 136 °C

====

# maps each entry to its melting point

Compound	melting point
CCCn1cc(Cc2ccc(C(=O)OC)cc2OC)c2cc(C=O)ccc21	99 to 100 °C
CCCCOc1cc(CCC(=O)O)n(Cc2ccc(C(F)(F)F)cc2)n1	116 to 118 °C
COc1ccc2cc3c(=O)n(C)cc(C(=O)NCCN(C)C)c3nc2c1Cl	209 to 212 °C

In the following, a different compound is considered.
Lab book: melting point of `CCOc1cc2c(Nc3cc(OC)c(Cl)cc3Cl)c(C#N)cnc2cc1C#CCCN1CCN(C)CC1` noted as 158 to 160 °C

====

# maps each entry to its melting point

Compound	Readout label	Reported result
COc1ccc2c(c1)C1(CCN(Cc3ccccc3)CC1)OC2c1ccc(F)cc1 (stereo not drawn)	melting point	86 to 88 °C
CC(=NOCCCOc1ccccc1)C(=O)O	melting point	86 to 88 °C

Lab book: melting point of `COc1ccc(-n2cc(C#N)c(=O)[nH]c2=O)cc1` noted as 304 to 306 °C

====

Readout label: melting point

Recorded melting point, per entry:
Molecule	melting point
COc1ccc(C2CCC(=O)N(CCN(C)C)c3ccccc3C2=O)cc1 (centres undefined)	116 to 117 °C
O=C(NCCCCC1CCSS1)NN1CCCCC1 (centres undefined)	67 to 69 °C
CC(Oc1ccc(COc2ccc(Cl)cc2)cc1)C(=O)O (centres undefined)	156 to 158 °C

Lab book: melting point of `O=C1N=C(N2CCSCC2)SC1=Cc1cccc(-c2cc(F)c(O)c(C34CC5CC(CC(C5)C3)C4)c2)c1` noted as 180 to 184 °C

Lab book: melting point of `CN(C)C(=O)Nc1cnc(N(C)C)c(Cl)c1` noted as 139 to 141 °C

Lab book: melting point of `N#CC(=NO)c1cccc(C(=O)c2ccccc2)c1` noted as 147 to 148 °C

Lab book: melting point of `Cc1c(CC(=O)O)c2cc(O)c(F)cc2n1C(=O)c1ccccc1` noted as 159 to 161 °C

Lab book: melting point of `Cc1c(O[Si](C)(C)C(C)(C)C)cc(O[Si](C)(C)C(C)(C)C)c(C)c1C(=O)OCC(Cl)(Cl)Cl` noted as 90 to 92 °C

====

# maps each entry to its melting point

Recorded melting point, per entry:
Molecule	Readout label	Reported result
Cc1c(C(F)(F)F)noc1NS(=O)(=O)c1ccc(-c2ccccc2)cc1	melting point	139 to 140 °C
Cc1cc2c(-c3ccccc3C)c(C(=O)O)c(=O)n(C)c2cc1Cl	melting point	204 to 205 °C
NC(=NO)c1ccc(C(=O)O)cn1	melting point	> 300 °C
O=C1c2ccc([N+](=O)[O-])cc2COc2cc(Nc3ccc(F)cc3[N+](=O)[O-])ccc21	melting point	211 °C
O=C(O)c1ccc(C2(C(=O)Oc3ccc(C(=O)NO)cc3)CCCCC2)cc1	melting point	169 to 170 °C

In the following, a different molecule is considered.
Lab book: melting point of CN1CCc2c([nH]c(Br)c2Br)C(c2ccccc2)C1 (stereo unspecified) noted as 136 to 137 °C

====

Readout label: melting point

Compound	melting point
CCCCc1nccc2ccc(C(=O)N[C@@H](Cc3cc(F)cc(F)c3)[C@H](O)CNCc3cccc(CC)c3)cc12	109 to 110 °C
Oc1nc(Nc2ccc(O)c(Cl)c2)cc(-c2ccccc2)n1	280 to 282 °C

Lab book: melting point of `OCc1cnc(-c2ccc(Cl)cc2)o1` noted as 115 to 116 °C

Lab book: melting point of CCc1ccc(Cn2cc(-c3cn(C4CC(O)C(CO)O4)c(=O)[nH]c3=O)nn2)cc1 (centres undefined) noted as 201 °C

Lab book: melting point of COc1cccc2c1CCN(C)C2CN1CCC(c2ccccc2)C1 (centres undefined) noted as 152 to 153 °C

Lab book: melting point of `CC1(C(=O)Nc2ccc(OCc3ccccc3)c(C(F)(F)F)c2)CC1` noted as 120 to 122 °C

Lab book: melting point of `OC[C@@H]1CCCN1c1nc2ccccc2s1` noted as 110 °C

====

Readout label: melting point

Recorded melting point, per entry:
Compound	melting point
O=c1c2ccccc2sc2cccc(Oc3cc(Cl)cc(Cl)c3)c12	207 to 213 °C
CCC1(CCCCCBr)C(=O)Nc2ccc(C)cc21 (centres undefined)	72 to 73 °C

Lab book: melting point of `O=c1[nH]c2ccc(Cl)cc2n1CCN1CCCCC1` noted as 156 to 158 °C

Lab book: melting point of `CCCP(=O)(CCC)Cc1ccc(NC(=O)C2=Cc3cc(-c4ccc(C)cc4)ccc3OCC2)cc1` noted as 219 to 220 °C

Lab book: melting point of `Cn1nc(-c2ccc(F)cc2)c(-c2ccncc2)c1CC(=O)Cc1ccccc1` noted as 148 to 151 °C

Lab book: melting point of `CCc1c(Oc2ccc([N+](=O)[O-])cc2C(F)(F)F)nn(C(=O)NC)c1C` noted as 96 to 97 °C

Lab book: melting point of `O=C(O)CSCc1cc2c(cc1Cc1ccccc1)OCO2` noted as 99.5 to 100 °C

====

# maps each entry to its melting point

Recorded melting point, per entry:
Molecule	melting point
CC#Cc1ccc(C2CCC(C3CCC(CCC)CC3)CC2)cc1 (stereo not given)	82 °C
CSc1ccc(C(=O)Nc2cccnc2C(=O)Nc2ccc(Cl)cn2)c(OC2CCNCC2)c1	157 to 158 °C

Lab book: melting point of NC(=O)C1N=COC1CCl (stereo not given) noted as 110 to 112 °C

Lab book: melting point of `C=CC[C@@H](N[S@](=O)C(C)(C)C)c1cc(F)cc(C#N)c1` noted as 38 to 40 °C

Lab book: melting point of CC(CS)C(=O)N(CC(=O)O)C1CC1 (stereo not given) noted as 89 to 91 °C

Lab book: melting point of `N#CC(C#N)=C(N)NCCCc1ccccc1` noted as 165 to 167 °C

Lab book: melting point of `NC(=O)c1cc2c(cc1OCC1CCCCC1)OCCCC2=O` noted as 185 to 186 °C

====

Readout label: melting point

Recorded melting point, per entry:
Smiles notation	Reported result
COCc1nc2c(N)nc3ccccc3c2n1Cc1ccccc1	202 to 204 °C
COc1cccc(N(C)C(=S)Oc2ccc3c(c2)CCCC3)n1	99 to 100 °C
O=S1(=O)CCN(CCCN2CCc3sc(Nc4ncc(F)cn4)nc3-c3c[nH]nc32)CC1	272 to 273 °C
O=Cc1ccc(OCCN2CCN(c3cc(Cl)nnc3Cl)CC2)cc1	110 to 112 °C
C=CCONC(=O)c1nc(-c2ccc(Cl)c(OC)c2F)c(F)c(N)c1Cl	184 to 186 °C

Lab book: melting point of `COC(=O)CNC(=O)c1nc(Cl)c2ccccc2c1O` noted as 129 °C

Lab book: melting point of `COc1ccnc(CCc2nc3cc(-c4ccc(S(N)(=O)=O)cc4)cnc3[nH]2)c1` noted as 216 to 218 °C

Lab book: melting point of `CCCCOC(=O)/C=C/c1ccc2c(=O)n(CC(C)C)c(CNC(=O)OC(C)(C)C)c(-c3ccc(Cl)cc3)c2c1` noted as 149 to 150 °C

Lab book: melting point of `O=C(O)CCC(=O)c1ccc(-n2cnc3c2CCCC3)cc1` noted as 234 to 235 °C

====

Readout label: melting point

Lab book: melting point of `CCCCn1c(=O)c2c(nc(C)n2S(=O)(=O)CCCCl)n(CCCC)c1=O` noted as 76 to 78 °C

====

Readout label: melting point

Recorded melting point, per entry:
Molecule	melting point
O=c1[nH]c2c3ccccc3ccc2n(C2CCCCC2)c1=O	288 °C
CC(C)(C)OC(=O)[C@@H]1CCC(=O)N1C(=O)OC(C)(C)C	53 to 55 °C
CCc1nc2cc(S(N)(=O)=O)c(Cl)cc2n1-c1ccc(CCNC(=O)NS(=O)(=O)c2ccc(C)cc2)cc1	163 to 170 °C
O=C(O)CNC(=O)C(Cc1ccccc1)P(=O)(O)O (configuration not stated)	250 °C
C#CCOc1cc(-n2ncc(=O)n(C)c2=O)c(Cl)cc1Cl	119 to 120 °C
COC(=O)c1ccc2c(c1)c(=O)cc(-c1ccccc1)n2C	174 to 176 °C

In the following, a different molecule is considered.
Lab book: melting point of `Cc1ncn(Cc2ccc(NC(=O)Nc3ccc(Oc4cc(Cl)ncn4)cc3)cc2C(F)(F)F)c1C` noted as 195 to 196 °C
